System: K4 kissing-loop RNA reporter
Assay: apparent KD of K4 kissing-loop reporter; higher = weaker reporter binding
Conditions: Eterna round: R107; input ligand: arginine 13.2 mM
Exercise: for every item that follows, state its recorded apparent KD of K4 kissing-loop reporter.
# number then unit; no other words

Specify apparent KD of K4 kissing-loop reporter for AAACAUCACUGGGAGUGAUGUUCUCAGUGACGAGGACCGGUACGGCCGCCACUCGCGAGAGAUUUAGUCUAGUCUUGACUGCAUU [Excl Tryptophan A V12] , system K4 kissing-loop RNA reporter.
303 nM

Specify apparent KD of K4 kissing-loop reporter for UAGUGUCGCGCAGGAUAUACUGAUUGGAGUGAUGUUCCAAACAUGCACGUGUGACUUUUACAAGAAGUAGAAGGGCGUGAGACAU [Exclusion FMN B GF 22] , system K4 kissing-loop RNA reporter.
200 nM

Specify apparent KD of K4 kissing-loop reporter for GGUCGAGUGAUGUUCGAUGUAGUGCAUUCAGAGGAUAUAGGAUGGGCUAGAAGGCUGAAAGGUGCUUCGAGUGAUGUUCGAGGAU [Exclusion FMN A GF 3] , system K4 kissing-loop RNA reporter.
80.7 nM

Specify apparent KD of K4 kissing-loop reporter for `GCCGUACGCAUGGAUACCAGCAUGCAUAUUAGCUAGUGAUGUUAGCGCUAUGCGAUGCUAUGCCCUUGGCAGCCAUGCGUACGGC` , system K4 kissing-loop RNA reporter.
108 nM

Specify apparent KD of K4 kissing-loop reporter for CUCGAGUGAUGUUCGAUUAUUUAUACAGAUACCAGUGAAUUUUAACACCCUUGGCAGCUGGUUGUAUCAUUUUUUUUUACUAAAG [JR_ExcTheophyA_Sub008] , system K4 kissing-loop RNA reporter.
166 nM

Specify apparent KD of K4 kissing-loop reporter for CACGUUUACCAAGGAUAUGGUCUGCCGCGGAACCGUUCAAGUGAUGUUUGAUUCGAGUAUUAAUCUCCAGAAGGUGGUAGUACAG [theeternabot_exclusion_KL_FMN_B_6] , system K4 kissing-loop RNA reporter.
353 nM

Specify apparent KD of K4 kissing-loop reporter for UUAGAUCAAAGAUCAGUCUUAUUGAGAGAACGAGGACCGGUACGGCCGCCACUCGAGUGAUGUUCGAGAACUCUCUUGACAAAUU [AK1 EXC Tryptophan A] , system K4 kissing-loop RNA reporter.
150 nM

Specify apparent KD of K4 kissing-loop reporter for AAUAAUGGAGUGAUGUUCCAGUAAUGGGAUACCAGACAUGAAAAUGUCCCUUGGCAGCUCAAAGGUCUAGUGAUGUUAUAAAGAA [KL-SSTheo-A6] , system K4 kissing-loop RNA reporter.
510 nM

Specify apparent KD of K4 kissing-loop reporter for AUGCGCGCGGCGGCCGCCACUCGCAUGAGAGUGAUGUUCUCGCCGUGCCCGCAAGGGUGCGGUGUGAGGACCGGGCCGGGCUGCG [#2 Same State - Tryptophan B Attempt #19 (HarryS)] , system K4 kissing-loop RNA reporter.
143 nM

Specify apparent KD of K4 kissing-loop reporter for AGAUUCGACACGGCCGCCACUUCCGGUGGCUGGUGUCAUGGUGCGCGUGAGUGAUGUUUAUGUGGGAGGACCGGGUGUUGAGUCU [whbob_Ex_Tryp_B_w42] , system K4 kissing-loop RNA reporter.
393 nM

Specify apparent KD of K4 kissing-loop reporter for GUUAUUCUAAACGCAGUAGUGAUGUUGAUGCGAGGACCGGUACGGCCGCCACUCGACUGCCGUCACGCCCGUCCAACAGCCGGAG [theeternabot_exclusion_KL_Trp_A_20] , system K4 kissing-loop RNA reporter.
142 nM

Specify apparent KD of K4 kissing-loop reporter for AACGUUUUGAGAAGGAGCGCGUUAAGCAGUGAUGUUGCUUUAUUAUAUUUACUACAUAUUUCGCAGGUAGGUCGCUCAAUACGUA [JR_Nu_SSArginiB_Sub025] , system K4 kissing-loop RNA reporter.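 Also: bound reporter read as fluorescence of individual clusters on recovered sequencing chips by microscopy, with normalized cluster intensities fitted with a binding model.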
153 nM
